test system: OVCAR-5; assay: NCI tumour cell line growth inhibition, 48 h
The source made the active and inactive calls. Rule as the data show it: active = GI50 up to about 1.1 µM and inactive = higher.
Outcomes: active, inactive

{"compound": "CO[C@@]1(c2ccccc2)O[C@H]2OCCC2[C@H]1c1ccc(Cl)cc1 (stereo partly drawn)", "class": "inactive"}
{"compound": "NCCc1ccc2oc3cc(=O)c4ccccc4c-3nc2c1", "class": "inactive"}
{"compound": "CCOP(=O)(OCC)C1CC(O)C(=O)N1 (stereo not drawn)", "class": "inactive"}
{"compound": "C/C(=C\\COc1ccc2ccc(=O)oc2c1)C1=CC(=O)C(C)(C)O1", "class": "inactive"}
{"compound": "Cc1cc(N(CCC#N)S(=O)(=O)c2ccccc2)ccc1/C=N\\c1cccc(C(=O)O)c1", "class": "inactive"}
{"compound": "Cc1c2c(c(C)c3c[n+](C)ccc13)Oc1ccccc1O2", "class": "inactive"}
{"compound": "COc1cccc(C2c3cc4c(cc3OC3COC(=O)C32)OCO4)c1OC (stereo not drawn)", "class": "inactive"}
{"compound": "CC(=O)O[C@@]12CO[C@@H]1C[C@@H](O)[C@@]1(C)C(=O)[C@H](O)C3=C(C)[C@@H](OC(=O)[C@H](O)[C@@H](NC(=O)c4ccccc4)c4ccccc4)C[C@@](O)([C@@H](OC(=O)c4ccccc4)C12)C3(C)C (stereo partly drawn)", "class": "active"}
